Assay: PhoP-dependent GFP reporter suppression – synthesized compounds, round 3, SAR follow-up (AID 434996)
Settings: S. Typhimurium PhoP-regulated promoter GFP reporter, 4 h; at 150 µM (top of the series)
Would you mind labelling by inhibition? At or over 20% is T, under is F.

Challenge: Decide: is the reported value of inhibition for O=C(Nc1ccc(Cl)cc1)N1CCCN(Cc2ccccc2Br)C1 equal to or greater than 20%?
Response given: T

Challenge: And for N#Cc1ccccc1NC(=S)NCc1ccc(Cl)cc1 ?
Response given: F

Challenge: And for Cc1cccc(NC(=O)N2CCCN(Cc3ccccc3F)C2)c1 ?
Response given: T

Challenge: And for O=C(Nc1cccc(C(F)(F)F)c1)N1CCCN(Cc2ccccc2F)C1 ?
Response given: F

Challenge: And for N#Cc1ccc(NC(=S)NCc2ccc(Cl)cc2)cc1 ?
Response given: F

Challenge: And for Cc1ccccc1CNC(=S)Nc1ccncc1 ?
Response given: F

Challenge: And for Cc1ccc(NC(=O)N2CCCN(Cc3ccccc3F)C2)cc1 ?
Response given: F

Challenge: And for O=C(Nc1cccc(I)c1)N1CCCN(Cc2ccccc2F)C1 ?
Response given: T

Challenge: And for O=C(Nc1cccc(F)c1)N1CCCN(Cc2ccccc2F)C1 ?
Response given: T
